Source listed as patent US8946446B2.

Molecular target: RORγ ligand binding domain (LBD) (Homo sapiens, UniProt P51449)
Construct: made in house; host or cells: E. coli BL-21 (BL3), vector pDEST15
Sequence (P51449 269-508 limits assumed): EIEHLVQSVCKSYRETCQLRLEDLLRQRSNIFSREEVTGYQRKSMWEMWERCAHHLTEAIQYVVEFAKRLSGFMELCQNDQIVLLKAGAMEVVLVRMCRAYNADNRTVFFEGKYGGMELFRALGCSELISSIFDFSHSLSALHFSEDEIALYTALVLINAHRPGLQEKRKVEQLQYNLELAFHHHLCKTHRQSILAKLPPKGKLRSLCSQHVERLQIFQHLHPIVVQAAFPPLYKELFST
Test: TR-FRET Activity Assay (ligand sensing, RORγ-LBD / coactivator peptide interaction)
Format: biochemical
Settings: read-out: RORγ activity in the TR-FRET Activity Assay (IC50 FRET), Group
pIC50: −log10 of the molar value.
measurementKind: pIC50

compound	studyTarget	pIC50
COc1cc(-c2cc(S(N)(=O)=O)c(C)n2CC2CCCCC2)cc(C(C)(C)C)n1 [17/1]	RORγ ligand binding domain (LBD) (Homo sapiens, UniProt P51449)	< 5.70

Challenge: Please report the recorded pIC50 for Cc1c(S(=O)(=O)NC2CCC2)cc(-c2cc(C(C)(C)C)cc(C(C)(C)C)c2)n1CC1CCCCC1 [2/3] .
Response given: 5.70 to 6.30

Challenge: Please report the recorded pIC50 for Cc1c(S(N)(=O)=O)cc(-c2cn(S(=O)(=O)NC3CCCCC3)c3ccccc23)n1CC1CCCCC1 [1/34] .
Response given: 5.70 to 6.30

Challenge: Please report the recorded pIC50 for Cc1c(S(N)(=O)=O)cc(-c2cc3c(c(C(C)(C)C)c2)OCCC3=NO)n1CC1CCCCC1 [Example 6/1] .
Response given: < 5.70

* * *

Target: RORγ ligand binding domain (LBD) (Homo sapiens, UniProt P51449)
Construct: made in house; host or cells: E. coli BL-21 (BL3), vector pDEST15
Sequence (P51449 269-508 limits assumed): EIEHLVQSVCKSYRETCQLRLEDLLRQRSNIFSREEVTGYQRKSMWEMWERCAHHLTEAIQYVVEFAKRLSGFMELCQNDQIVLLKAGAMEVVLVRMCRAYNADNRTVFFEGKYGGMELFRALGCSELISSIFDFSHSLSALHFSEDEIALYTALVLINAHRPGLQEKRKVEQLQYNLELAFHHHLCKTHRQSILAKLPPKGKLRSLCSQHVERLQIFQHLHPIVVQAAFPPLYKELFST
Assay: TR-FRET Activity Assay (ligand sensing, RORγ-LBD / coactivator peptide interaction)
Assay type: biochemical
Conditions: read-out: RORγ activity in the TR-FRET Activity Assay (IC50 FRET), Group
measurementKind: IC50

Worked cases, answers included:
structureSmilesString	IC50
CC(C)(C)c1cc(-c2c(Cl)c(S(N)(=O)=O)c(Cl)n2CC2CCCCC2)cc(C(C)(C)C)c1	500 to 2000 nM
Cc1c(S(N)(=O)=O)cc(-c2cc(C(C)(C)C)cc(C(C)(F)F)c2)n1CC1CCCCC1	< 500 nM
CCOc1cc(-c2cc(S(N)(=O)=O)c(C)n2CC2CCCCC2)cc(C(C)(C)C)n1	500 to 2000 nM

Challenge: Please report the recorded IC50 for Cc1c(S(N)(=O)=O)cc(-c2cc(C(C)(C)C)cc(C(C)(C)C)c2)n1CCC1CCCC1 .
Response given: < 500 nM
